assay: Plasma methadone concentration versus daily oral methadone dose (FIG. 6, 8300 urine samples from 150 patients); conditions: human, 70 mg/day
measured-property: concentration at 24 h (ng/mL)
Numbers only, in ng/mL.

Entry CCC(=O)C(CC(C)N(C)C)(c1ccccc1)c1ccccc1 (stereo not shown) [methadone] , concentration at 24 h reported as 200

Data credit: patent US6124136A
